From: patent US20260297060A1

Assay: Pharmacokinetics in female BALB/c nude mice bearing A375 xenografts, 1 day dosing (PK and PD study): plasma, tumor and brain concentrations, AUC
Assay type: in vivo
Details: mouse, plasma, po, 0.75 mg/kg, 0.75 mg/kg p.o. BID × 1 day; post 1st dose; 0.5 h; read-out: Mean Concentration in Plasma ± SEM
test.readout: concentration at 0.5 h (ng/mL)
API: value field is a number in ng/mL; no unit string.

Quick one: give measured concentration at 0.5 h for CCN(C)S(=O)(=O)Nc1ccc(F)c(Oc2ccc3ncn(C4CC5(CCN(C6CC7(C6)CN(c6cc8c(cc6F)c(N6CCC(=O)NC6=O)nn8C)C7)CC5)C4)c(=O)c3c2)c1C#N (stereo not shown)
832

----------
Assay: Pharmacokinetics in female BALB/c nude mice bearing A375 xenografts, 1 day dosing (PK and PD study): plasma, tumor and brain concentrations, AUC
Type: in vivo
Settings: mouse, tumor, po, 1 mg/kg, 1 mg/kg p.o. TID × 1 day; post 3rd dose; 10 h; read-out: Mean Concentration in Tumor ± SEM
test.readout: concentration at 10 h (ng/g)
I only need the number, in ng/g, no unit after it.

Give a short answer stating reported concentration at 10 h for CCN(C)S(=O)(=O)Nc1ccc(F)c(Oc2ccc3ncn(C4CC5(CCN(C6CC7(C6)CN(c6cc8c(cc6F)c(N6CCC(=O)NC6=O)nn8C)C7)CC5)C4)c(=O)c3c2)c1C#N (stereo not shown) .
205

----------
Target: human bile salt export pump (BSEP) efflux transporter (Homo sapiens)
Construct: purchased SOLVO Biotechnology Charles River Laboratories, Szeged, Hungary; host or cells: HEK293 (inside out membrane vesicles)
Sequence (O95342 whole entry): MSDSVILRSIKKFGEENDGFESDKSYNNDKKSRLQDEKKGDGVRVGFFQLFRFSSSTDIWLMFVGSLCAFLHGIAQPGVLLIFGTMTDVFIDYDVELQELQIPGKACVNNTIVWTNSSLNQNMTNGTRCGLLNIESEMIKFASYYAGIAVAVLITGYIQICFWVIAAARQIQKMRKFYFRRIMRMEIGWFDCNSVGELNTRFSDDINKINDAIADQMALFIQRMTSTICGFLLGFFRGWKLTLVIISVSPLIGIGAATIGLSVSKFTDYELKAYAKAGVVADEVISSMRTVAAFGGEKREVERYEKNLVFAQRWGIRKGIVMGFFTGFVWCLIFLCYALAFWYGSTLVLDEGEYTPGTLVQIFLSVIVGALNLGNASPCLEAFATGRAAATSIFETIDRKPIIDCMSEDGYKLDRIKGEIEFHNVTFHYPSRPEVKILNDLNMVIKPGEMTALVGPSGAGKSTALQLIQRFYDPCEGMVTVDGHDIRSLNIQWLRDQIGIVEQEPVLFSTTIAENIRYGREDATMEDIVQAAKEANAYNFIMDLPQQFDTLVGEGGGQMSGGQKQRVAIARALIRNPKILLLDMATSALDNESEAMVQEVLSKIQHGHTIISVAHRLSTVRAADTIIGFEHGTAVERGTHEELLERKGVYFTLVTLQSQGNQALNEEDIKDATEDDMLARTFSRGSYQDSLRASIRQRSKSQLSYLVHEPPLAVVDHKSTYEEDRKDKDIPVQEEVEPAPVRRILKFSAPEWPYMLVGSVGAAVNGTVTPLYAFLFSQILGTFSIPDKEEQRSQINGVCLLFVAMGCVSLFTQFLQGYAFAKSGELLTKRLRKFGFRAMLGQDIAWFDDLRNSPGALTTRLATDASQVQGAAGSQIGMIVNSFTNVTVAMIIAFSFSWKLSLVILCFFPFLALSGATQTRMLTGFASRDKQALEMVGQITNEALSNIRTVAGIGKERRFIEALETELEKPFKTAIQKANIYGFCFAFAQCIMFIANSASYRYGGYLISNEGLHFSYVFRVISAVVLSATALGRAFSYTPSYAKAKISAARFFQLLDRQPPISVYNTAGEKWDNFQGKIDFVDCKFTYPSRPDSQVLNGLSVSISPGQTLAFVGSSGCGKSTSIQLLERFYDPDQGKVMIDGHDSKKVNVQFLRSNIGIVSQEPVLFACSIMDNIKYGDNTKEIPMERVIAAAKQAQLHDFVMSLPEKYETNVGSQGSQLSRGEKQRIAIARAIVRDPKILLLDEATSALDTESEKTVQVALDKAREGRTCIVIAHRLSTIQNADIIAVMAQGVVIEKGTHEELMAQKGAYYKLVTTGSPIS
Assay: BSEP Vesicular Transport Inhibition Assay (IC50 determination)
Format: biochemical
Settings: human BSEP (HEK293) vesicles; taurocholate 0.2 μM; 4 mM Mg-ATP; 10 concentrations, 1 replicate
I'd appreciate it if you could supply BSEP Inhibition/IC50 values for the items below.
Please respond with the number in µM and leave the unit unwritten.

Fill in: BSEP Inhibition/IC50 on human bile salt export pump (BSEP) efflux transporter (Homo sapiens), entry CO[C@H]1CCN(S(=O)(=O)Nc2ccc(F)c(Oc3ccc4ncn([C@H]5COC6(CCN(C7CC8(C7)CN(c7cc9c(cc7F)c(N7CCC(=O)NC7=O)nn9C)C8)CC6)C5)c(=O)c4c3)c2C#N)C1
8.83

Enter recorded BSEP Inhibition/IC50 with human bile salt export pump (BSEP) efflux transporter (Homo sapiens) for CCN(C)S(=O)(=O)Nc1ccc(F)c(Oc2ccc3ncc(C4CC5(CCN(C6CC7(C6)CN(c6cc8c(cc6F)c(N6CCC(=O)NC6=O)nn8C)C7)CC5)C4)nc3c2)c1C#N (centres unmarked) here.
7.36

Given Cn1nc(N2CCC(=O)NC2=O)c2cc(F)c(N3CC4(CC(N5CCC6(CC5)C[C@@H](n5cnc7ccc(Oc8c(F)ccc(NS(=O)(=O)N9CC[C@@H](F)C9)c8C#N)cc7c5=O)CO6)C4)C3)cc21 , report its BSEP Inhibition/IC50 on human bile salt export pump (BSEP) efflux transporter (Homo sapiens).
6.22

Answer with BSEP Inhibition/IC50 of CCN(C)S(=O)(=O)Nc1ccc(F)c(Oc2ccc3ncn([C@H]4COC5(CCC(N6CCC(c7cc8c(cc7F)c(N7CCC(=O)NC7=O)nn8C)C(F)(F)C6)CC5)C4)c(=O)c3c2)c1C#N (single isomer, unassigned) measured for human bile salt export pump (BSEP) efflux transporter (Homo sapiens).
1.56

Quote BSEP Inhibition/IC50 with test system human bile salt export pump (BSEP) efflux transporter (Homo sapiens) for CCN(C)S(=O)(=O)Nc1ccc(F)c(Oc2ccc3ncn(C4CC5(CCN(C6CCC(c7cc8c(cc7F)c(N7CCC(=O)NC7=O)nn8C)CC6F)CC5)C4)c(=O)c3c2)c1C#N (single isomer, unassigned) [Compound 85]
9.81
